System: HOP-92 NSCLC
Assay: NCI-60 one-dose screen, 48 h (100 = growth as untreated, 0 = no growth, -100 = all killed)
Details: 10 µM unless noted
About 83,000 compounds went through this panel and 20% of them were active in at least one assay; those are over-represented in the sample as a whole. Active and inactive are the calls of the source. Rule for the calls: active = growth percent below 10; inactive = the rest.
readout: growth

Consider the following illustrative entries.
compound: CC/C(=C(/c1ccc(Cl)cc1)c1ccc(OCCN(CC)CC)cc1)c1ccc(OC)cc1
assayed.target: HOP-92 NSCLC
growth: 51.7% (inactive)

compound: CCN1CCN(CCOc2ccc(CNc3ccc4nc(CCC5CCCCC5)[nH]c4c3)cc2)CC1
assayed.target: HOP-92 NSCLC
growth: 22.4% (inactive)

compound: CCC(=C(c1ccc(OCCN(CC)CC)cc1)c1ccc(OCCN(CC)CC)cc1)c1ccc(Cl)cc1
assayed.target: HOP-92 NSCLC
growth: 33.5% (inactive)

compound: Nc1nc(=O)n([C@H]2CC=C(CO)O2)cc1F
assayed.target: HOP-92 NSCLC
growth: 101% (inactive)

[ask] Please list growth recorded for the compound COC(=O)c1nc(-c2ccccc2)oc1S(=O)(=O)N1CCN(c2ccc(OC)cc2)CC1
[reply] 60% (inactive)

[ask] Please list growth recorded for the compound COc1cccc2cc(N(C)c3nc(C)nc4c3CCC4)ccc12
[reply] 0.483% (active)

[ask] Please list growth recorded for the compound O=C(Nc1cccc(Cn2c(=O)[nH]c3ccc(Oc4ncccn4)cc3c2=O)c1)c1cccc(Cl)c1
[reply] 75.4% (inactive)

[ask] Please list growth recorded for the compound O=C(Nc1ncc(Cc2ccc(Cl)cc2)s1)C1=NCCCCN1
[reply] 119% (inactive)

[ask] Please list growth recorded for the compound COc1ccc(C(=O)/C=C/c2ccc(Cl)cc2)cc1S(N)(=O)=O
[reply] -26.6% (active)

[ask] Please list growth recorded for the compound Cc1nc2ccccc2c(/C=C/c2ccc(Cl)cc2)c1C(=O)/C=C/c1ccccc1
[reply] 41.4% (inactive)

[ask] Please list growth recorded for the compound CCCCCCCC/C=C\CCCCCCCCOc1ccc(CC(=O)NCC[N+]2(C)CCCC2)cc1
[reply] 57.4% (inactive)

[ask] Please list growth recorded for the compound Cn1ccnc1C(=O)/C=C/c1ccc(C(=O)Nc2ccccc2F)cc1
[reply] 16.2% (inactive)

[ask] Please list growth recorded for the compound Cc1[nH]c(C(=O)Nc2ccc(C(N)=O)cc2OC(C)C)c(Cl)c1Cl
[reply] 73.3% (inactive)

[ask] Please list growth recorded for the compound O=C1NC(=O)C(=Cc2cc(-c3ccc(Cl)cc3)n(-c3ccccc3)n2)C(=O)N1
[reply] 94.4% (inactive)

[ask] Please list growth recorded for the compound COc1cccc(C(=O)Nc2cccc(NC(=O)c3ccccn3)c2)c1
[reply] 115% (inactive)

[ask] Please list growth recorded for the compound c1ccc2cc(Cn3cc[n+](Cc4ccc5ccccc5c4)c3)ccc2c1
[reply] -13.3% (active)

[ask] Please list growth recorded for the compound C=C1CC[C@@H]2[C@](C)(COC(C)=O)[C@H](OC(C)=O)CC[C@@]2(C)[C@@H]1CC(Nc1ccc(S(=O)(=O)Nc2nccc(C)n2)cc1)C1=CCOC1=O (stereo not given in full)
[reply] 71.6% (inactive)

[ask] Please list growth recorded for the compound CCOC(=O)c1ccc2c(c1)[n+](=O)c(C(C)=O)c(C(F)(F)F)n2[O-]
[reply] -29.9% (active)

[ask] Please list growth recorded for the compound CCN1C(=O)N(CC)C2C1NN=c1s/c(=C\c3ccccc3)c(=O)n12 (stereo not given)
[reply] 27.3% (inactive)

[ask] Please list growth recorded for the compound O=C(/C=C/c1ccco1)c1ccc(Nc2ccnc3cc(Cl)ccc23)cc1
[reply] 41.5% (inactive)
